- Test system: HOP-92
- PROCEDURE_TEXT: NCI tumour cell line growth inhibition, 48 h
Active and inactive are the calls of the source. Rule as the data show it: active = GI50 up to about 1.1 µM and inactive = higher.
I would appreciate it if you answered using one of these outcomes: 1 (active), 0 (inactive)

Previously resolved entries follow.
>>> class_label("CCOP(=O)(COCCn1nc(Br)c(=O)[nH]c1=O)OCC")
0
>>> class_label("CC1OC(OC2C(O[C@H]3CC[C@@]4(C)C(=CC[C@H]5[C@@H]6C[C@@H]7O[C@]8(CC[C@@H](C)CO8)[C@@H](C)[C@@H]7[C@@]6(C)CC[C@@H]54)C3)OC(CO)C(OC3OC(CO)C(O)C3O)C2O)C(O)C(O)C1O (some centres undefined)")
1
>>> class_label("O=c1[nH]c2ccc(CC(=S)N3CCN(c4ccccc4)CC3)cc2o1")
0

Here's the next entry for you.
Dear colleague, could you share the recorded outcome for COC(=O)/C=C1/OC(c2ccccc2)=C(C)C1=O when you have a moment?
0

----------
- Tested on: NCI-H23
- PROCEDURE_TEXT: NCI tumour cell line growth inhibition, 48 h
The source made the active and inactive calls. Cut-off read from the data, not from the text of the source: active = GI50 up to about 1.1 µM and inactive = higher.
OBSERVABLE: GI50

>>> recorded_result("CC(=O)Nc1ccc2nncnc2c1")
"> 100 µM (inactive)"
>>> recorded_result("C=C(C)C(=O)O[C@@H]1C[C@@]2(C)O[C@@H]2C[C@H](O)/C(C)=C/[C@H]2OC(=O)C(=C)[C@@H]21")
"> 100 µM (inactive)"
>>> recorded_result("C/C=C(/CCC1NCCC2c3ccccc3NC12)[Si](C)(C)C (stereo not drawn)")
"13.8 µM (inactive)"
>>> recorded_result("O=c1c(NCc2ccccc2)c(C2(c3ccccc3F)SCCCS2)c1=O")
"> 100 µM (inactive)"
>>> recorded_result("CCOC(=O)c1nc2ccccc2nc1Nc1ccc(C(=O)OC)s1")
"> 100 µM (inactive)"

I need GI50 for every entry listed below, if you could help.
1. CCOC(=N)/C(=C1\OC(=N)C(c2ccc(Cl)cc2)=C1O)c1ccc(Cl)cc1
2. COC(=O)[C@H](Cc1ccccc1)NC(=O)c1ccc(CNC(=O)/C=C/c2csc(-c3ccccc3)n2)cc1
3. O=C(CCl)N1CCN(c2ccccn2)CC1
4. Cc1csc2nc(-c3cc([N+](=O)[O-])c(Cl)cc3Cl)c(/C=N/N=C(N)N)n12
5. OC1CCSc2ccccc21 (stereo not drawn)
6. CN(C)c1ccc(/C=C(\C#N)C(=O)c2ccccc2)cc1Br

1. 15.3 µM (inactive)
2. 13.8 µM (inactive)
3. 19.8 µM (inactive)
4. 16.4 µM (inactive)
5. > 100 µM (inactive)
6. > 100 µM (inactive)

For each of the items listed, what is its GI50?
1. CCOC(=O)c1c(N)sc2c1C(C(=O)OCC)CCCC2 (stereo not drawn)
2. CCOC(=O)C1=CNC(C(=O)OCC)C1c1cccn1-c1ccc(Cl)cc1[N+](=O)[O-] (stereo not drawn)
3. COC(=O)CCC1=CCC2(SC)C(=O)Nc3cccc1c32 (stereo not drawn)
4. Brc1ccccc1C1SCc2nc3ccccc3n21 (stereo not drawn)
5. CC(C)(C)OC(=O)NC(Cc1ccc(OCc2ccccc2)cn1)C(=O)N1CCCC1 (stereo not drawn)
6. COc1cc(C2S/C(=C/c3ccccc3)C(=O)N2c2ccc([N+](=O)[O-])cc2)cc(OC)c1OC (stereo not drawn)
7. Cn1c(=O)sc2cc(C(=S)N3CCN(c4ccccc4)CC3)ccc21

62.1 µM (inactive)
36.6 µM (inactive)
> 100 µM (inactive)
11.7 µM (inactive)
45.7 µM (inactive)
> 100 µM (inactive)
34.1 µM (inactive)

Look at each compound and report its GI50.
1. CCOC(=O)C1=C(OS(=O)(=O)C(F)(F)F)CCCC1
2. N#C/C(=C\c1ccc(O)c(O)c1)c1c(C#N)c(N)nn1-c1ccccc1
3. CCOC(=O)c1ccc(Nc2nc3cc(C(F)(F)F)ccc3nc2C(=O)OCC)cc1
4. c1ccc2c(c1)N=C(NC1CCCCC1)CCN2

1: > 100 µM (inactive); 2: 7.43 µM (inactive); 3: 99.1 µM (inactive); 4: > 100 µM (inactive)

Returns the measured GI50 for the input compound. Input: OCC1OC(n2cnc3cccnc32)CC1O (stereo not drawn)
> 100 µM (inactive)

----------
- Tested on: RPMI-8226
- PROCEDURE_TEXT: NCI tumour cell line growth inhibition, 48 h
The source made the active and inactive calls. Rule as the data show it: active = GI50 up to about 1.1 µM and inactive = higher.
Your reply should match one of these outcome classes. active, inactive

>>> class_label("Cc1ccc(S(=O)(=O)NC(=O)NCCc2ccccc2)cc1")
"inactive"
>>> class_label("Cc1cc(C)nc(NS(=O)(=O)c2ccc(Nc3c4ccccc4nc4c(C(=O)NCCCN(CCO)CCO)cccc34)cc2)n1")
"inactive"
>>> class_label("CC(C)(C)OC(=O)NC(Cc1ccc(OCc2ccccc2)cn1)C(=O)N1CCCC1 (stereo unspecified)")
"inactive"
>>> class_label("CCOc1cc(-c2nc3cc(F)ccc3s2)ccc1O")
"inactive"
>>> class_label("C=CC1OC(CCCOC(=O)C(C)(C)C)O[C@@H]1CC (stereo partly specified)")
"inactive"
>>> class_label("C/C=C(/CCC1NCCC2c3ccccc3NC12)[Si](C)(C)C (stereo unspecified)")
"inactive"

Any idea what this test logged for NC(=O)NC(=O)c1cccc(NC(=O)CBr)c1 ?
active

Tell me the recorded outcome of this test for COC(=O)[C@H](Cc1ccccc1)NC(=O)c1ccc(CNC(=O)/C=C/c2csc(-c3ccccc3)n2)cc1 .
inactive

Each compound tested received a call. Report the one for Cc1c(C#N)c2nnn(-c3cccc(Cl)c3)c(=O)n2c1-c1ccccc1 .
active

Please let me know the test result on file for COc1ccc(C[C@H]2NC[C@H](OC(C)=O)[C@H]2OC(C)=O)cc1 .
active

// outcome(item) with item = O=C(O)c1ccc(SSc2ccc(C(=O)O)cn2)nc1
inactive

Would you mind telling me which call this test gave O=C(O)C1=C(CO)Oc2cc3c(cc2C1c1ccc2c(c1)OCO2)OCO3 (stereo unspecified) ?
inactive

For COC(=O)C(=O)C(C(=O)C=C(C)C)C(=O)C(=O)Nc1ccc(Cl)cc1C (stereo unspecified) , what call appears in the results of this test?
inactive

Tell me the recorded outcome of this test for CC1(C)C2CCC13C(=O)C1OC3(C2)C2C(=O)N(c3ccccc3)C(=O)C12 (stereo unspecified) .
inactive

Could you kindly confirm the outcome this assay logged for CCOC(=O)C1=C(OS(=O)(=O)C(F)(F)F)CCCC1 ?
inactive

----------
- System: ACHN
- PROCEDURE_TEXT: NCI tumour cell line growth inhibition, 48 h
The source made the active and inactive calls. Rule as the data show it: active = GI50 up to about 1.1 µM and inactive = higher.
OBSERVABLE: GI50

The following compounds have reported results that may help.
>>> recorded_result("CCOC(=O)c1nc2ccccc2nc1Nc1ccc(C(=O)OC)s1")
"> 100 µM (inactive)"
>>> recorded_result("COCCCNC(=O)C1C(=O)N(CCCOC)C(=O)/C1=N\\N (stereo unspecified)")
"> 100 µM (inactive)"
>>> recorded_result("CO/C(=N\\N=C\\c1ccc(C(F)(F)F)cc1)c1ccncc1")
"> 10 µM (inactive)"
>>> recorded_result("O=[As](O)(O)c1ccc2nc3cc([As](=O)(O)O)ccc3nc2c1")
"> 100 µM (inactive)"

# map each compound to its GI50
1. NC(=O)C1=CC2C3C=CC2(O)C(=O)OC3O1 (stereo unspecified)
2. Cc1cc(C)nc(NS(=O)(=O)c2ccc(Nc3c4ccccc4nc4c(C(=O)NCCCN(CCO)CCO)cccc34)cc2)n1
3. COc1ccc(O)cc1C=O
4. c1ccc(-c2nc3sccn3n2)cc1
5. CCOC(=O)c1nc2cc(C(F)(F)F)ccc2nc1Nc1ccc(OC)c(OC)c1
6. N#Cc1c(-c2ccccc2)[nH]c2ccccc2c1=O
7. Cc1csc2nc(-c3cc([N+](=O)[O-])c(Cl)cc3Cl)c(/C=N/N=C(N)N)n12

1: 3.44 µM (inactive); 2: 22.9 µM (inactive); 3: > 100 µM (inactive); 4: > 100 µM (inactive); 5: > 100 µM (inactive); 6: > 100 µM (inactive); 7: 16.6 µM (inactive)

----------
- Tested on: NCI-H23
- PROCEDURE_TEXT: NCI tumour cell line growth inhibition, 48 h
The source made the active and inactive calls. No stated cut-off is given here; in the data, active = GI50 up to about 1.1 µM and inactive = higher.
Respond with a class label; see active, inactive

Worked cases, answers included:
>>> class_label("C[C@@H]1CCC2[C@@H](C)C(=O)O[C@@H]3C4C[C@@H]1[C@@]23OO[C@@]4(C)O (stereo not given in full)")
"inactive"
>>> class_label("CC(C)Cn1cnc2c(Cl)nc3ccccc3c21")
"inactive"
>>> class_label("CN(C)c1nnnn1-c1c(N)n(C)c(=O)n(C)c1=O")
"inactive"
>>> class_label("COc1cccc([C@H]2CC(=O)c3cc4c(cc3N2)OCO4)c1")
"active"
>>> class_label("OCC(O)C(O)C(O)C(O)c1nnn[nH]1 (stereo not given)")
"inactive"
>>> class_label("Cc1cc(S(N)(=O)=O)c(SCc2nc(N)nc(N(C)C)n2)cc1Cl")
"inactive"
>>> class_label("Nc1ncnc2c1ncc(=O)n2C1CC(O)C(CO)O1 (stereo not given)")
"inactive"
>>> class_label("O=C(CCN1CCCCC1CCO)Nc1ccc2c(c1)C(=O)c1ccc(NC(=O)CCN3CCCCC3CCO)cc1C2=O (stereo not given)")
"inactive"

What call does the record list for CCCCCC[C@H]1CC(=O)C2CCCC[C@@]23CC[C@H](CCl)N13.CCCCCC[C@H]1CC(=O)C2CCCC[C@@]23C[C@H](Cl)CN13 (stereo not given in full) ?
inactive

Can you look up the reported call for C(=C\c1ccccc1)/C=N/c1nc2cc3sc(/N=C/C=C/c4ccccc4)nc3cc2s1 for me?
inactive

From: ChEMBL document CHEMBL1201862
